# METHOD: Stability of compounds in human liver microsomes
# Format: in vitro ADME
# DETAILS: both sexes, pH 7.4; 0.5 μM compound, 0.5 mg/mL human liver microsomes, 37° C.; maxed at 420 minutes; read-out: HLM Elimination half-life (t1/2, min)
I'd be grateful if you could share measured log10 half-life at 0.5 μM for these entries.
Quick note: numbers are log10 of half-life at 0.5 μM, with min as the unit.

I would be grateful if you could share the reported log10 half-life at 0.5 μM for `COCCOc1cc2c(cc1OC)[C@H]1C[C@@H](O)[C@H](CC(C)(C)C)CN1CC2` . 1.94

I would be grateful if you could share the reported log10 half-life at 0.5 μM for `COc1cc2c(cc1OCCCF)CCN1C[C@@H](CC(C)(C)C)[C@H](O)C[C@H]21` . 1.59

I would be grateful if you could share the reported log10 half-life at 0.5 μM for `COc1cc2c(cc1OCC(F)(F)Cl)CCN1C[C@@H](CC(C)(C)C)[C@H](O)C[C@H]21` . 2.36

I would be grateful if you could share the reported log10 half-life at 0.5 μM for `COc1cc2c(cc1OCC1(F)COC1)CCN1C[C@@H](CC(C)(C)C)[C@H](O)C[C@H]21` . 1.94

I would be grateful if you could share the reported log10 half-life at 0.5 μM for `COc1cc2c(cc1OCC#N)CCN1C[C@@H](CC(C)(C)C)[C@H](O)C[C@H]21` . 2.07

I would be grateful if you could share the reported log10 half-life at 0.5 μM for `COc1cc2c(cc1OCCF)CCN1C[C@@H](CC(C)(C)C)[C@H](O)C[C@H]21` . 2.19

I would be grateful if you could share the reported log10 half-life at 0.5 μM for `COc1cc2c(cc1OCCc1ccc(F)cc1)CCN1C[C@@H](CC(C)(C)C)[C@H](O)C[C@H]21` . 1.04

I would be grateful if you could share the reported log10 half-life at 0.5 μM for `COc1cc2c(cc1OC[C@@H](C)OC)CCN1C[C@@H](CC(C)(C)C)[C@H](O)C[C@H]21` . 1.80

I would be grateful if you could share the reported log10 half-life at 0.5 μM for `COc1cc2c(cc1OCC1(F)CC1)CCN1C[C@@H](CC(C)(C)C)[C@@H](O)C[C@H]21` . 2.28

I would be grateful if you could share the reported log10 half-life at 0.5 μM for `COc1cc2c(cc1OCC1CCN(C#N)CC1)CCN1C[C@@H](CC(C)(C)C)[C@H](O)C[C@H]21` . 2.08

I would be grateful if you could share the reported log10 half-life at 0.5 μM for COc1cc2c(cc1OCC(O)COCC(F)(F)F)CCN1C[C@@H](CC(C)(C)C)[C@H](O)C[C@H]21 (stereo partly drawn) . 2.33

I would be grateful if you could share the reported log10 half-life at 0.5 μM for `COc1cc2c(cc1OCc1cocn1)CCN1C[C@@H](CC(C)(C)C)[C@H](O)C[C@H]21` . 2.02

I would be grateful if you could share the reported log10 half-life at 0.5 μM for COc1cc2c(cc1OCC1CC1(F)F)CCN1C[C@@H](CC(C)(C)C)[C@H](O)C[C@H]21 (stereo partly drawn) . 2.45

I would be grateful if you could share the reported log10 half-life at 0.5 μM for COc1cc2c(cc1OCCOC(C#N)C1CC1)CCN1C[C@@H](CC(C)(C)C)[C@H](O)C[C@H]21 (stereo partly drawn) . 1.26

I would be grateful if you could share the reported log10 half-life at 0.5 μM for `COc1cc2c(cc1OC1CCC1)CCN1C[C@@H](CC(C)(C)C)[C@H](O)C[C@H]21` . 1.28
